Entry source: PubChem BioAssay (NCI)

Tested on: MOLT-4 leukemia
Test: NCI tumour cell line growth inhibition, 48 h
Where a SMILES comes first, the peptide text is derived from it. The star is where a group is joined. Boc = CC(C)(C)OC(=O)*
Quick reference: TGI of the listed items.

Answered examples (10):
COMPOUND: c1cnc2c(c1)Nc1cnncc1S2
TGI: > 100 µM

COMPOUND: O=C1C=C(Nc2ccccc2C(=O)CC(=O)C(=O)Nc2ccc(Cl)c(Cl)c2)c2ccccc2C1=O
TGI: > 100 µM

COMPOUND: CCOC(=O)N1CCC(=O)C[C@@H]1C/C=C/P1(=O)O[C@H](c2ccccc2)C(C)N1C(C)C (stereo partly specified)
TGI: > 100 µM

COMPOUND: COC(=O)C(=O)C1CCCCC(C2=NC3NN=C(N)N3C2=O)C1=O (stereo unspecified)
TGI: > 100 µM

COMPOUND: C=C1CO[C@@H]2C[C@@H]1CC/C(C)=C/CC/C(C)=C/CC[C@@]2(C)O
TGI: 12.4 µM

COMPOUND: CCC[CH2][Sn]1([CH2]CCC)[O]C(=O)c2cc(C)ccc2[O]1
TGI: 1.09 µM

COMPOUND: CCN1C(=O)N(CC)C2C1NN=c1s/c(=C\c3ccccc3)c(=O)n12 (stereo unspecified)
TGI: > 100 µM

COMPOUND: CCOC(=O)C(CC(C)C)NC(=O)C(Cc1ccccc1)NC(=O)CNC(=O)OC(C)(C)C (stereo not drawn) (Boc-Gly-Phe-Leu-OEt; configuration not given here)
TGI: 30.6 µM

COMPOUND: CON
TGI: > 100 µM

COMPOUND: O=c1c2ncn(CCCl)c2n(-c2ccccc2)c(=S)n1-c1ccccc1
TGI: > 100 µM

// query TGI value for entry `Cc1ccccc1NC(=O)C(=O)Cc1cnc2ccccc2n1`
> 100 µM

// query TGI value for entry `CNC(=O)OCCN1c2ccccc2Sc2ccccc21`
> 100 µM

// query TGI value for entry COC(=O)CCc1ccc2c(c1)CC1(C2)Cc2ccc3c(c2C1)CCC3 (stereo unspecified)
> 100 µM

// query TGI value for entry `O=C(O)c1cc(N(Cc2ccccc2O)Cc2cc(O)ccc2O)ccc1O`
> 100 µM

###

Quick reference: TGI of the listed items.
Tested on: SNB-19 CNS
Test: NCI tumour cell line growth inhibition, 48 h

Answered examples (2):
MOLECULE: COC(=O)/C(=N\O)C(C(=O)C=C(C)C)C(=O)C(=O)Nc1ccccc1C (stereo not given)
SYSTEM_UNDER_TEST: SNB-19 CNS
TGI: > 100 µM
--
MOLECULE: Cc1c(N2C(=O)/C(=C\c3ccc(N(C)C)cc3)N=C2c2ccccc2)c(=O)n(-c2ccccc2)n1C
SYSTEM_UNDER_TEST: SNB-19 CNS
TGI: > 100 µM

Short answer please: TGI, SNB-19 CNS, entry `O=C1c2ccccc2C(=O)c2sc(Nc3ccc(Cl)c(Cl)c3)nc21`
32.9 µM

Short answer please: TGI, SNB-19 CNS, entry `COc1ccc2c(c1)c1c3c(ccc4ncn2c43)N(CCN(C)C)CCN=1`
1.96 µM

Short answer please: TGI, SNB-19 CNS, entry COc1ccc(C2C3=C(COC3=O)N(CCO)c3cc4c(cc32)OCCO4)cc1OC (stereo not given)
> 30.5 µM

Short answer please: TGI, SNB-19 CNS, entry COc1cc(C2C(Cl)C(=O)N2NC(=O)Cc2ccccc2)ccc1O (stereo not given)
> 100 µM

Short answer please: TGI, SNB-19 CNS, entry `C=C1CO[C@@H]2C[C@@H]1CC/C(C)=C/CC/C(C)=C/CC[C@@]2(C)O`
51.6 µM

Short answer please: TGI, SNB-19 CNS, entry `CCOC(=O)[C@H]1C[C@]23CN(C(=O)OC(C)(C)C)CC[C@H]2CCC2(SCCCS2)[C@@H]3N1C`
> 100 µM

Short answer please: TGI, SNB-19 CNS, entry Cc1cc(C)c2c(c1)C(=O)C1(C2)Cc2c(ccc(C)c2C)C1=O (stereo not given)
> 100 µM

Short answer please: TGI, SNB-19 CNS, entry `CCCCCCCCCC(=O)CC(=O)c1c(O)cc(O)cc1O`
68.1 µM

Short answer please: TGI, SNB-19 CNS, entry `Nc1cccc2nsnc12`
> 100 µM

Short answer please: TGI, SNB-19 CNS, entry NC(=O)NC(=O)C1CCCCC1C(=O)O (stereo not given)
> 100 µM

Short answer please: TGI, SNB-19 CNS, entry `CCN(CC)c1ccc2nc3c4ccccc4c(=NC(=O)c4ccccc4-c4c5ccc(N(CC)CC)cc5[o+]c5cc(N(CC)CC)ccc45)cc-3oc2c1`
6.64 µM

Short answer please: TGI, SNB-19 CNS, entry N#CC12Cc3ccc4c(c3-c3cccc(c31)CCN2C(=O)c1ccccc1)OCO4 (stereo not given)
> 100 µM

Short answer please: TGI, SNB-19 CNS, entry `COc1ccc(/C(Cl)=C/c2ccc(Cl)c(Cl)c2)cc1`
> 100 µM

Short answer please: TGI, SNB-19 CNS, entry CC12C(=O)N(CCN)C(=O)C1C1c3ccccc3C2c2ccccc21 (stereo not given)
> 100 µM

Short answer please: TGI, SNB-19 CNS, entry `CCOC(=O)C(Cc1ccc(OC)cc1)C(=O)OCC`
17.4 µM

Short answer please: TGI, SNB-19 CNS, entry `Cc1cc2c(=O)[nH]nc(N)c2c(N)n1`
> 100 µM

Short answer please: TGI, SNB-19 CNS, entry COc1ccc(NC(=O)O[C@H]2[C@H](O[C@H]3[C@@H](O)COC(O[C@H]4C[C@H]5[C@@H]6CC=C7C[C@@H](O)CC[C@]7(C)[C@H]6CC[C@]5(C)[C@H]4[C@H](C)C(=O)CCC(C)C)[C@@H]3OC(C)=O)OC[C@@H](O)[C@@H]2O)cc1 (stereo not given in full)
3.36 µM

Short answer please: TGI, SNB-19 CNS, entry NC(=O)CCC(NC(=O)C(F)(F)F)C(=O)O (stereo not given)
> 100 µM

###

Tested on: OVCAR-8 ovarian
Test: NCI tumour cell line growth inhibition, 48 h
READOUT_LABEL: TGI (µM)
Lab book: enter the figure in µM, no units written.

INPUT_SMILES: COc1cccc(Nc2nccc(Nc3ccc4[nH]ncc4c3)n2)c1
MEASURED_VALUE: 4.39
--
INPUT_SMILES: Oc1[nH]c2ccccc2c1N=NC(=S)N1CCCC1
MEASURED_VALUE: 13.6

Short answer please: TGI, OVCAR-8 ovarian, entry `C=C=[CH][Sn]([c]1ccccc1)([c]1ccccc1)[c]1ccccc1`
3.68

###

System: RPMI-8226 leukemia
Assay: NCI tumour cell line growth inhibition, 48 h
Quick reference: TGI of the listed items.

COMPOUND: Nn1c(N=Nc2c(O)[nH]c3ccccc23)n[nH]c1=S
TGI: > 100 µM

COMPOUND: CC(C)NC(=O)O/N=C1\CCC2[C@@H]3CC=C4C[C@@H](OC(=O)NC(C)C)CC[C@]4(C)C3CC[C@]12C (stereo not given in full)
TGI: 2.96 µM

COMPOUND: O=C(NNC(=O)c1ccccc1Cl)c1ccccc1O
TGI: > 100 µM

COMPOUND: CCOC(=O)c1c(N2CCOCC2)[nH]c(=O)c(C(c2ccc(Cl)c([N+](=O)[O-])c2)c2c(O)c(C(=O)OCC)c(N3CCOCC3)[nH]c2=O)c1O
TGI: > 100 µM

Continue with the next compound.
// query TGI value for entry `CCOc1cc(/C=N\NC(=O)N/N=C/c2ccc(O)c(OCC)c2)ccc1O`
> 53 µM

###

System: RPMI-8226 leukemia
Assay: NCI tumour cell line growth inhibition, 48 h
Quick reference: TGI of the listed items.

Answered examples (5):
INPUT_SMILES: COc1cc(NCc2ccc3n2-c2ccccc2OC3)cc(OC)c1OC
TGI: 26.9 µM

INPUT_SMILES: O=C(/C=C/c1ccc(F)c(F)c1)OCCc1ccccc1
TGI: > 100 µM

INPUT_SMILES: ClC1=C(Cl)C(Cl)=C(Cl)C1=Cc1ccc(Cl)cc1
TGI: 5.32 µM

INPUT_SMILES: COc1cnc2c(c1)C(=O)c1c-2n(CCCN2CCN(CCO)CC2)c(=O)c2cc([N+](=O)[O-])ccc12
TGI: 6.75 µM

INPUT_SMILES: O=C1N[C@@H]2c3c(Br)sc(Br)c3C(=O)[C@@H]2N1
TGI: 18.5 µM

Continue with the next compound.
// query TGI value for entry `NNC(=S)N/N=C/C(Cl)=C(\Cl)C(=O)O`
> 100 µM

###

System: SF-539 CNS
Experiment: NCI tumour cell line growth inhibition, 48 h
READOUT_LABEL: TGI

MOLECULE: COc1c2ccoc2c(S(=O)(=O)Nc2ccc(Cl)cc2)c2oc(C)cc(=O)c12
MEASURED_VALUE: > 93.9 µM
//
MOLECULE: NC(=O)NC(=O)C1CCCCC1C(=O)O (centres undefined)
MEASURED_VALUE: > 100 µM
//
MOLECULE: CN(NC(=O)c1cccs1)C1=NCCN1
MEASURED_VALUE: > 100 µM
//
MOLECULE: COC(=O)CCc1ccc2c(c1)CC1(C2)Cc2ccc3c(c2C1)CCC3 (centres undefined)
MEASURED_VALUE: > 100 µM
//
MOLECULE: COP(=O)(C(/C=C/c1ccccc1)OC(C)=O)[C@@H]1CCCC[C@H]1N(CC(C)(C)C)C(C)=O (some centres undefined)
MEASURED_VALUE: 33.4 µM
//
MOLECULE: CC(OCc1ccccc1)C(NC(=O)C1CSSCC(NC(=O)C(Cc2ccccc2)NC(=O)OCc2ccccc2)C(=O)NC(Cc2ccccc2)C(=O)NC(Cc2cn(C=O)c3ccccc23)C(=O)NC(CCCCNC(=O)OCc2ccccc2)C(=O)NC(C(C)OCc2ccccc2)C(=O)N1)C(N)=O (centres undefined)
MEASURED_VALUE: > 100 µM
//
MOLECULE: Cc1cc(=O)[nH]c2c3c(ccc12)OC(C)(C)C=C3
MEASURED_VALUE: > 23.8 µM
//
MOLECULE: O=C1/C(=C\c2c(-c3ccccc3)nn(-c3ccccc3)c2O)C(c2ccccc2)=NN1c1ccccc1
MEASURED_VALUE: > 100 µM

// query TGI value for entry `O=[N+]([O-])c1ccc(-c2ccccc2)c([As](=O)(O)O)c1`
44.6 µM
